Test system: progesterone receptor (PR)
Assay: Uterine progesterone receptor levels, hydroxyapatite assay (Example 8)
Type: in vivo, female Sprague-Dawley rats
Settings: cotreatment with 17β-estradiol
PROPERTY_MEASURED: ED40-60 for Inhibition, PRc (µmol/kg)
Please state the figure in µmol/kg; there is no need to write the unit.

Which ED40-60 for Inhibition, PRc is listed for CC(C)c1cc(Cl)cc2c1oc1cc(Cl)cc(Cl)c12 ?
25

Which ED40-60 for Inhibition, PRc is listed for Cc1cc2c(cc1Cl)oc1c(Cl)c(Cl)c(Cl)cc12 ?
10

Which ED40-60 for Inhibition, PRc is listed for Cc1cc(Cl)cc2c1oc1c(Cl)c(Cl)c(Cl)cc12 ?
2

Which ED40-60 for Inhibition, PRc is listed for Cc1cc2c(cc1Cl)oc1cc(Cl)c(Cl)cc12 ?
2

Data provenance is patent US5516790A.
